test: Antispastic activity on the gallbladder in mice (egg yolk-induced emptying); type: in vivo; conditions: mouse, in vivo, ip, 75 mg/kg, read-out: death of the animals treated
MEASURE_NAME: mortality (%)
// note: answer is a bare numeric in %

COc1ccc(Cc2nccc3cc(OC)c(OC)cc23)cc1OC [PAPAVERINE, papaverine, reference compound] has a reported mortality of 20
